System: Hs-578T
Test: NCI tumour cell line growth inhibition, 48 h
Activity calls are given as the source filed them. No stated cut-off is given here; in the data, active = GI50 up to about 1.1 µM and inactive = higher.
This listing pairs molecules with measured GI50.

Query string: Give the measured GI50 of COc1cc(CC2CCc3nc(N)nc(N)c3C2)cc(OC)c1OC (configuration not stated) .
Result string: > 60.5 µM (inactive)

Query string: Give the measured GI50 of NC(=O)C1CCCN1C(=O)N(CCCl)N=O (configuration not stated) .
Result string: > 100 µM (inactive)

Query string: Give the measured GI50 of COc1cc(/C=C/C(=O)O)ccc1OS(=O)(=O)O .
Result string: > 100 µM (inactive)

Query string: Give the measured GI50 of COc1cc2ccc(C(C)NCC#N)cc2cc1OC (configuration not stated) .
Result string: > 100 µM (inactive)

Query string: Give the measured GI50 of O=C1Oc2ccccc2C(=O)/C1=C/N1C(=O)/C(=C/c2ccc3c(c2)OCO3)SC1=S .
Result string: 1.32 µM (inactive)

Query string: Give the measured GI50 of COC(CNC(=O)C(C)NC(=O)CCc1ccccc1)OC (configuration not stated) .
Result string: > 100 µM (inactive)

Query string: Give the measured GI50 of CN(C)CCNc1ccc(NCC[N+](C)(C)Cc2ccc([N+](=O)[O-])cc2)c2c1C(=O)c1ccccc1C2=O .
Result string: 19.3 µM (inactive)

Query string: Give the measured GI50 of CC(C)=NN/C(=N\c1ccc(Cl)cc1)NS(=O)(=O)c1ccc(Oc2cccc(Cl)c2C#N)cc1 .
Result string: > 100 µM (inactive)

Query string: Give the measured GI50 of CC(C)Nc1[nH]c(C(=O)c2ccccc2)c(N)c1C(=S)Nc1ccccc1 .
Result string: 86.1 µM (inactive)

Query string: Give the measured GI50 of O=C(O)c1cccc(S(=O)(=O)NN2C(=O)CSC2c2ccccc2Cl)c1 (configuration not stated) .
Result string: > 100 µM (inactive)

Query string: Give the measured GI50 of CN(C)CCCN1c2ccccc2CCc2cc([N+](=O)[O-])ccc21 .
Result string: 31.8 µM (inactive)

Query string: Give the measured GI50 of Brc1ccc2[nH]cc(-c3csc(-c4c[nH]c5ccc(Br)cc45)n3)c2c1 .
Result string: 3.79 µM (inactive)

Query string: Give the measured GI50 of Cn1c2ccccc2n2c(N=O)c(-c3ccccc3)nc12 .
Result string: 70.3 µM (inactive)

Query string: Give the measured GI50 of NCCCC[C@H](N)C(=O)Nc1ccc(-c2nc3ccccc3s2)cc1 .
Result string: 23.1 µM (inactive)

Query string: Give the measured GI50 of N#Cc1c(O)c(/C=N/c2ncccn2)c(=O)n2c1[nH]c1ccccc12 .
Result string: > 100 µM (inactive)

Query string: Give the measured GI50 of O=c1ccc2[n+]([O-])c3ccc(O)cc3oc-2c1 .
Result string: 7.53 µM (inactive)

Query string: Give the measured GI50 of C[C@@]12C[C@@H](c3ccccc3O1)N1CCCSC1=N2 .
Result string: > 100 µM (inactive)

###

Tested on: LOX IMVI
Assay: NCI tumour cell line growth inhibition, 48 h
Active and inactive are the calls of the source. Cut-off read from the data, not from the text of the source: active = GI50 up to about 1.1 µM and inactive = higher.
This listing pairs compounds with measured GI50.

CCOC(=O)/C(Br)=C1\OC(=O)c2ccccc2-c2ccccc21    36.8 µM (inactive)
c1csc(-c2cc(-c3ccsc3)cs2)c1    > 100 µM (inactive)
O=[N+]([O-])c1ccc2c(c1)nc1n2C(c2c(F)cccc2F)SC1 (stereo not drawn)    > 100 µM (inactive)
C[Si](C)(C)C1=C([Si](C)(C)C)C(Cl)(Cl)C1=O    1.58 µM (inactive)
CSc1nc(=O)c2nc(-c3cccs3)c(-c3cccs3)nc2n1C    57.5 µM (inactive)

Query string: LOX IMVI / GI50 / COc1ccc(N2C(=O)C(=O)C3(CCCCC3)C2=O)c2ccccc12 : value?
Result string: > 10 µM (inactive)

Query string: LOX IMVI / GI50 / Nc1ccn(C2OC(COP(=O)(O)Oc3ccccc3)C(O)C2O)c(=O)n1 (stereo not drawn) : value?
Result string: 6.61 µM (inactive)

Query string: LOX IMVI / GI50 / COc1ccc(-n2cnnc2-c2nsc3ccccc23)cc1 : value?
Result string: > 100 µM (inactive)

Query string: LOX IMVI / GI50 / CCOC(=O)/C(C#N)=C1\N[C@H](C(=O)OCC)CO1 : value?
Result string: > 100 µM (inactive)

Query string: LOX IMVI / GI50 / C=C(c1nc2ccc(Cl)cc2[nH]c1=O)C(O)c1ccc(C(O)C(=O)c2nc3ccc(Cl)cc3[nH]c2=O)cc1 (stereo not drawn) : value?
Result string: > 83.6 µM (inactive)

###

This listing pairs compounds with measured GI50.
Tested on: NCI-H460
Experiment: NCI tumour cell line growth inhibition, 48 h
Active and inactive are the calls of the source. No stated cut-off is given here; in the data, active = GI50 up to about 1.1 µM and inactive = higher.

Query string: Give the measured GI50 of CN(C)C(=N/O)/C(=N\O)N(C)C .
Result string: > 100 µM (inactive)

Query string: Give the measured GI50 of COc1ccc(OCC(=O)O)c2c1CCC(C(C)C)C2=O (stereo not drawn) .
Result string: > 100 µM (inactive)

Query string: Give the measured GI50 of c1ccc2c(c1)C(=Nc1ccc(N=C3c4ccccc4-c4ccccc43)cc1)c1ccccc1-2 .
Result string: > 100 µM (inactive)

###

System: U-251
Assay: NCI tumour cell line growth inhibition, 48 h
Activity calls are given as the source filed them. No stated cut-off is given here; in the data, active = GI50 up to about 1.1 µM and inactive = higher.
This listing pairs compounds with measured GI50.

O=c1[nH]cc(COCCCO)c(=O)[nH]1    > 100 µM (inactive)

Query string: Give the measured GI50 of CSc1ccc(C=C2N=C(c3ccccc3)N(c3cc(C(=O)c4ccccc4)ccc3N3C(=O)/C(=C/c4ccc(SC)cc4)N=C3c3ccccc3)C2=O)cc1 .
Result string: 27 µM (inactive)

Query string: Give the measured GI50 of CC(C)OC(=O)C(NC(=O)C(CC(=O)OCc1ccccc1)NC(=O)OCc1ccccc1)NC(=O)C1C(C)(C)CCC1(C)C (stereo not drawn) .
Result string: 2.14 µM (inactive)

Query string: Give the measured GI50 of CC(=O)OC1C2CCC3CC2C2(SCCS2)C31 (stereo not drawn) .
Result string: > 100 µM (inactive)

Query string: Give the measured GI50 of COc1ccc(-n2cnnc2-c2nsc3ccccc23)cc1 .
Result string: > 100 µM (inactive)

###

Test system: 786-0
Experiment: NCI tumour cell line growth inhibition, 48 h
Activity calls are given as the source filed them. Cut-off read from the data, not from the text of the source: active = GI50 up to about 1.1 µM and inactive = higher.
readout: GI50

Query string: Give the measured GI50 of CC1CC2C(=O)N(c3ccccc3)C(=O)C2c2c1c1ccccc1n2Cc1ccccc1 (stereo not given) .
Result string: > 100 µM (inactive)

Query string: Give the measured GI50 of O=C1c2[nH]c3ccc(Br)cc3c2CCN1Cc1ccc(Cl)cc1 .
Result string: 11.3 µM (inactive)

Query string: Give the measured GI50 of O=C(CSc1nnc(-c2ccc(/N=C\c3ccc(Cl)cc3)cc2)o1)Nc1ccccc1[N+](=O)[O-] .
Result string: > 100 µM (inactive)

Query string: Give the measured GI50 of C=C1C(=O)CC2C(=O)C(C)(O)CC/C=C(\C)C(=O)CC12 (stereo not given) .
Result string: 16.1 µM (inactive)

Query string: Give the measured GI50 of Cc1nn2c(nc1=O)sc1ccc3ccccc3c12 .
Result string: > 100 µM (inactive)

###

Tested on: OVCAR-8
Assay: NCI tumour cell line growth inhibition, 48 h
Active and inactive are the calls of the source. Rule as the data show it: active = GI50 up to about 1.1 µM and inactive = higher.
Lab note: assign the record to one of y for active, n for inactive

Examples from the recorded data:
COc1ccc2nc3ccccc3c(NCCN(C)CCCl)c2c1    y
O=c1[nH]c(=O)n(C2OC(CO)C(O)C2O)c2nc(-c3ccc(-c4ccccc4)cc3)cnc12 (stereo not given)    n
C=CCSC1=N/C(=C\c2ccccc2)C(=O)N1CC=C    n
CC1=C(c2nc3ccccc3s2)C(=O)OC1(C)C    n

Query string: # outcome recorded in this test, key = CCCC(=O)OCC1OC(n2cc(F)c(=O)[nH]c2=O)CC1OC(=O)CCC (stereo not given)
Result string: y

Query string: # outcome recorded in this test, key = O=C(O)CCSc1nnc(COc2ccc(Cl)cc2)n1-c1ccccc1
Result string: n

Query string: # outcome recorded in this test, key = O=c1c2cc(Cl)ccc2n2nnc3ccc(NCCNCCO)c1c32
Result string: y

Query string: # outcome recorded in this test, key = O=c1c2cc(Br)ccc2[nH]c(=S)n1-c1ccc(Br)cc1
Result string: n

Query string: # outcome recorded in this test, key = O=C1CC2SC(COCc3ccccc3)(CCN2Cc2ccccc2)C1 (stereo not given)
Result string: n

Query string: # outcome recorded in this test, key = COC(CNC(=O)C(C)NC(=O)CCc1ccccc1)OC (stereo not given)
Result string: n

###

Tested on: LOX IMVI
Test: NCI tumour cell line growth inhibition, 48 h
Calls of active or inactive are those of the source. Cut-off read from the data, not from the text of the source: active = GI50 up to about 1.1 µM and inactive = higher.
readout: GI50

Query string: Give the measured GI50 of NC(=O)C1CCCN1C(=O)N(CCCl)N=O (stereo not drawn) .
Result string: > 100 µM (inactive)

Query string: Give the measured GI50 of COC(=O)CCc1ccc2c(c1)CC1(C2)Cc2ccc(CCC(=O)OC)cc2C1 .
Result string: 26.6 µM (inactive)

Query string: Give the measured GI50 of O=P(c1ccccc1)(c1ccccc1)C1CC=C2CCCCCC2C1 (stereo not drawn) .
Result string: 26.1 µM (inactive)
